Origin of measurements: the supplement of paper PMC10567573

B1: TFE3 (parent)
chain: ELPNIKREISETEAKALLKERQKK

- Variants of: B1
- assay.explanation: protein stability index of a GFP-peptide fusion (GPS, HEK-293T) (PSI 1-6); higher = more stable;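 note: lentivirally expressed fusions sorted by FACS into six bins by GFP to DsRed ratio, PSI derived from sequencing read proportions per bin multiplied by bin number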
- condition.context: c terminus: a fixed tail appended
Would you mind labelling by protein stability index? At or over 3 is 1, under is 0.

[
  {
    "mutation.annotation": "N4P",
    "group": 1
  },
  {
    "mutation.annotation": "Q22V",
    "group": 0
  },
  {
    "mutation.annotation": "R7L",
    "group": 0
  },
  {
    "mutation.annotation": "L18V",
    "group": 0
  },
  {
    "mutation.annotation": "I5Q",
    "group": 1
  },
  {
    "mutation.annotation": "E20H",
    "group": 0
  },
  {
    "mutation.annotation": "K23W",
    "group": 0
  },
  {
    "mutation.annotation": "I5N",
    "group": 1
  },
  {
    "mutation.annotation": "L2W",
    "group": 1
  },
  {
    "mutation.annotation": "K19M",
    "group": 0
  },
  {
    "mutation.annotation": "L2R",
    "group": 1
  },
  {
    "mutation.annotation": "I5V",
    "group": 1
  },
  {
    "mutation.annotation": "I9D",
    "group": 1
  },
  {
    "mutation.annotation": "I9S",
    "group": 1
  },
  {
    "mutation.annotation": "E13V",
    "group": 1
  },
  {
    "mutation.annotation": "I9R",
    "group": 1
  },
  {
    "mutation.annotation": "E8V",
    "group": 1
  },
  {
    "mutation.annotation": "P3S",
    "group": 1
  },
  {
    "mutation.annotation": "L18E",
    "group": 0
  },
  {
    "mutation.annotation": "L18P",
    "group": 0
  }
]
